# system.under.test: Human GLP-1 receptor stably expressing cells (hGLP-1R/CHO-K1 cells) (Homo sapiens, UniProt P43220)
# Construct: expressed in transfected cells
# Sequence (P43220 24-463): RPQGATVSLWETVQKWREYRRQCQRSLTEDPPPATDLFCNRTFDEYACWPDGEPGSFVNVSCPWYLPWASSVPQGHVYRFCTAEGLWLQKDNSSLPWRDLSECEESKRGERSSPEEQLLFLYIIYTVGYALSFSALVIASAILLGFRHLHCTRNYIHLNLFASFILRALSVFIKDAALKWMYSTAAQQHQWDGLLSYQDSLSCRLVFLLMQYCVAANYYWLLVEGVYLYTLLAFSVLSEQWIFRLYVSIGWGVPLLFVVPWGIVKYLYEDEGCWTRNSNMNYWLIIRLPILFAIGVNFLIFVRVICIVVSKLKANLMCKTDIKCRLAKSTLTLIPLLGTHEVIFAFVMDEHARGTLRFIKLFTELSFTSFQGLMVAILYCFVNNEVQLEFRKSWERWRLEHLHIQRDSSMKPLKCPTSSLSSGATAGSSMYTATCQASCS
# experimental.details: Measurement of GLP-1 receptor agonist activity (cAMP assay)
# Format: cell-based
# condition.context: CHO-K1, maximum effect; cAMP with 2 nM human GLP-1 (7-36) = 100%, DMSO only = 0%; read-out: Emax
property.name: Emax (%)

Completed entries (count: 3):
>>> recorded_result("Cc1ccc(COc2nc3c(cc2C(F)F)CCN(Cc2nc4ccc(C(=O)O)nc4n2C[C@@H]2CCO2)[C@H]3C)cc1")
118
>>> recorded_result("COc1cc(C(=O)O)cc2c1nc(CN1CCc3cc(C#N)c(OCc4cc(F)c(Cl)cc4F)nc3[C@@H]1C)n2C[C@@H]1CCO1")
115
>>> recorded_result("Cc1ccc(COc2nc3c(cc2C(F)F)CCN(Cc2nc4ccc(C(=O)O)cc4n2C[C@@H]2CCO2)[C@H]3C)cc1")
123

I. C[C@H]1c2nc(OCc3ccc(C#N)cc3F)c(C(F)F)cc2CCN1Cc1nc2ccc(C(=O)O)nc2n1C[C@@H]1CCO1
II. C[C@H]1c2c(cc(C(F)(F)F)c3c2O[C@](C)(c2ccc(Cl)cn2)O3)CCN1Cc1nc2ccc(C(=O)O)cc2n1C[C@@H]1CCO1
(Q) Between I and II , which one has the lower reported Emax value? Return value: the label identifying the chosen record.
(A) II
(II: 53.3%, I: 97%)

###

# system.under.test: Human GLP-1 receptor stably expressing cells (hGLP-1R/CHO-K1 cells) (Homo sapiens, UniProt P43220)
# experimental.details: Measurement of GLP-1 receptor agonist activity (cAMP assay)
# condition.context: increase in cAMP concentration in hGLP-1R/CHO-K1 cells, 37° C. 1 hour
property.name: EC50 (nM)

>>> recorded_result("C[C@H]1c2nc(OCc3nc4ccccc4s3)c(C(F)(F)F)cc2CCN1Cc1nc2ccc(C(=O)O)cc2n1C[C@@H]1CCO1")
0.638

A. COc1cc(C(=O)O)cc2c1nc(CN1CCc3cc(Cl)c(OCc4c(F)cc(Cl)cc4F)cc3[C@@H]1C)n2C[C@@H]1CCO1
B. C[C@H]1c2nc(OCc3ccc(Cl)cc3F)c(C(F)F)cc2CCN1Cc1nc2ccc(C(=O)O)c(F)c2n1C[C@@H]1CCO1
(Q) Between A and B , which one has the lower reported EC50 value? Return value: the label identifying the chosen record.
(A) A
(A: 0.0232 nM, B: 0.0463 nM)

###

# system.under.test: Human GLP-1 receptor stably expressing cells (hGLP-1R/CHO-K1 cells) (Homo sapiens, UniProt P43220)
# experimental.details: Measurement of GLP-1 receptor agonist activity (cAMP assay)
# condition.context: increase in cAMP concentration in hGLP-1R/CHO-K1 cells, 37° C. 1 hour
pEC50: −log10 of the molar value.
property.name: pEC50

>>> recorded_result("COc1cc(C(=O)O)cc2c1nc(CN1CCc3cc(C(F)F)c(OCc4ccc(Cl)cc4F)nc3[C@@H]1C)n2C[C@@H]1CCO1")
10.91
>>> recorded_result("C[C@H]1c2nc(OCc3ccccc3Cl)c(Cl)cc2CCN1Cc1nc2ccc(C(=O)O)c(F)c2n1C[C@@H]1CCO1")
9.36
>>> recorded_result("Cc1ccc(COc2cc3c(cc2C(F)F)CCN(Cc2nc4ccc(C(=O)O)cc4n2C[C@@H]2CCO2)[C@H]3C)cc1")
8.47
>>> recorded_result("C[C@H]1c2nc(OCc3ccc(Cl)cc3Cl)c(C(F)F)cc2CCN1Cc1nc2ccc(C(=O)O)c(F)c2n1C[C@@H]1CCO1")
10.14
>>> recorded_result("C[C@H]1c2nc(OCc3ccc(C#N)cc3F)c(Cl)cc2CCN1Cc1nc2c(F)cc(C(=O)O)cc2n1C[C@@H]1CCO1")
10.16

I. COc1cc(C(=O)O)cc2c1nc(CN1CCc3cc(C(F)(F)F)c(OCc4cc(Cl)n(C)n4)nc3[C@@H]1C)n2C[C@@H]1CCO1
II. C[C@H]1c2nc(NCc3ccc(Cl)cc3F)c(C(F)(F)F)cc2CCN1Cc1nc2ccc(C(=O)O)c(F)c2n1C[C@@H]1CCO1
III. COc1cc(C(=O)O)cc2c1nc(CN1CCc3cc(C(F)F)c(OCc4ccc(Cl)cn4)nc3[C@@H]1C)n2C[C@@H]1CCO1
(Q) Let's sort these by pEC50, smallest first. Go ahead? Give the labels in the order requested.
(A) I, II, III
(I: 9.06, II: 9.72, III: 10.23)

###

# system.under.test: Human GLP-1 receptor stably expressing cells (hGLP-1R/CHO-K1 cells) (Homo sapiens)
# experimental.details: Measurement of GLP-1 receptor agonist activity (cAMP assay)
# condition.context: increase in cAMP concentration in hGLP-1R/CHO-K1 cells, 37° C. 1 hour
property.name: EC50 (nM)

Completed entries (count: 10):
>>> recorded_result("C[C@H]1c2nc(NCc3ccc(C#N)cc3F)c(C(F)(F)F)cc2CCN1Cc1nc2c(Cl)cc(C(=O)O)cc2n1C[C@@H]1CCO1")
0.137
>>> recorded_result("C[C@H]1c2nc(NCc3ccc(Cl)cc3F)c(C(F)(F)F)cc2CCN1Cc1nc2c(F)cc(C(=O)O)cc2n1C[C@@H]1CCO1")
0.0992
>>> recorded_result("C[C@H]1c2nc(OCc3ccc(C#N)cc3F)c(C(F)F)cc2CCN1Cc1nc2ccc(C(=O)O)c(F)c2n1C[C@@H]1CCO1")
0.104
>>> recorded_result("COc1cc(C(=O)O)cc2c1nc(CN1CCc3cc(Cl)c(OCc4ccccc4Cl)nc3[C@@H]1C)n2C[C@@H]1CCO1")
0.194
>>> recorded_result("Cc1ccc(COc2nc3c(cc2Cl)CCN(Cc2nc4ccc(C(=O)O)c(F)c4n2C[C@@H]2CCO2)[C@H]3C)cc1")
0.158
>>> recorded_result("C[C@H]1c2nc(OCc3ccc(Cl)cc3F)c(Cl)cc2CCN1Cc1nc2c(F)cc(C(=O)O)cc2n1C[C@@H]1CCO1")
0.0739
>>> recorded_result("Cc1cc2c(nc1OCc1ccc(Cl)cc1F)[C@H](C)N(Cc1nc3ccc(C(=O)O)cc3n1C[C@@H]1CCO1)CC2")
0.168
>>> recorded_result("C[C@H]1c2nc(OCc3ccc(Cl)cc3Cl)c(C(F)F)cc2CCN1Cc1nc2c(F)cc(C(=O)O)cc2n1C[C@@H]1CCO1")
0.0683
>>> recorded_result("COc1cc(C(=O)O)cc2c1nc(CN1CCc3cc(C(F)F)c(OCc4ccccc4Cl)nc3[C@@H]1C)n2C[C@@H]1CCO1")
0.108
>>> recorded_result("C[C@H]1c2nc(OCc3c(F)cc(Cl)cc3F)c(C(F)F)cc2CCN1Cc1nc2ccc(C(=O)O)cc2n1C[C@@H]1CCO1")
0.147

1. COc1cc(C(=O)O)cc2c1nc(CN1CCc3cc(Cl)c(OCc4ccc(Cl)cn4)nc3[C@@H]1C)n2C[C@@H]1CCO1
2. COc1cc(C(=O)O)cc2c1nc(CN1CCc3cc(C(F)(F)F)c(NCc4ccc(C#N)cc4F)nc3[C@@H]1C)n2C[C@@H]1CCO1
(Q) Two entries are listed, 1 and 2 . Which one carries the higher EC50? Return value: the label identifying the chosen record.
(A) 1

###

# system.under.test: Human GLP-1 receptor stably expressing cells (hGLP-1R/CHO-K1 cells) (Homo sapiens)
# experimental.details: Measurement of GLP-1 receptor agonist activity (cAMP assay)
# condition.context: increase in cAMP concentration in hGLP-1R/CHO-K1 cells, 37° C. 1 hour
property.name: EC50 (nM)

>>> recorded_result("C[C@H]1c2nc(NCc3cc(F)c(Cl)cc3F)c(C(F)(F)F)cc2CCN1Cc1nc2c(Cl)cc(C(=O)O)cc2n1C[C@@H]1CCO1")
0.0693

1. COc1cc(C(=O)O)cc2c1nc(CN1CCc3cc(C#N)c(OCc4ccc(Cl)cc4)nc3[C@@H]1C)n2C[C@@H]1CCO1
2. COc1cc(C(=O)O)cc2c1nc(CN1CCc3cc(C#N)c(OCc4ccccc4Cl)nc3[C@@H]1C)n2C[C@@H]1CCO1
3. C[C@H]1c2nc(OCc3ccc(C#N)cc3F)c(C(F)F)cc2CCN1Cc1nc2ccc(C(=O)O)cc2n1C[C@@H]1CCO1
(Q) Task field, ranking: reported EC50, descending order. Give the labels in the order requested.
(A) 3, 2, 1

###

# system.under.test: Human GLP-1 receptor stably expressing cells (hGLP-1R/CHO-K1 cells) (Homo sapiens)
# Construct: expressed in transfected cells
# experimental.details: Measurement of GLP-1 receptor agonist activity (cAMP assay)
# Type: cell-based
# condition.context: CHO-K1, maximum effect; cAMP with 2 nM human GLP-1 (7-36) = 100%, DMSO only = 0%; read-out: Emax
property.name: Emax (%)

>>> recorded_result("C[C@H]1c2nc(OCc3ccc(Cl)cc3Cl)c(C(F)F)cc2CCN1Cc1nc2ccc(C(=O)O)nc2n1C[C@@H]1CCO1")
115
>>> recorded_result("C[C@H]1c2nc(OCc3ccc(C#N)cc3F)c(Cl)cc2CCN1Cc1nc2ccc(C(=O)O)cc2n1C[C@@H]1CCO1")
112
>>> recorded_result("C[C@H]1c2cc(OCc3c(F)cc(F)cc3F)c(C(F)F)cc2CCN1Cc1nc2ccc(C(=O)O)cc2n1C[C@@H]1CCO1")
114
